# ASSAY_SUMMARY: Cardiotoxicity in aortic ring (unknown origin) assessed as relaxation of phenylephrine induced aortic ring contraction at 10 uM incubated for 1 hr
# Type: toxicity, tissue-based, Aorta
# Set-up: scale not given: the % may be the effect or the level left
# STATED_CONDITIONS: human
# if value of Activity reaches 70%, tag label 1; if it stays below, tag label 0

Solved cases (5 shown):
COMPOUND | ASSIGNED_LABEL
COC(=O)Nc1cc(-c2cnc(OC[C@@](C)(N)CC(C)C)c(OC)c2)ccn1 (racemic) | label 1
Cc1cc(-c2cc(C(F)F)c(OC[C@@](C)(N)CC(C)C)cn2)ccn1 | label 1
COC(=O)Nc1cc(-c2ccc(OC[C@@](C)(N)CC(C)C)c(C(F)F)n2)ccn1 | label 1
COC(=O)Nc1cc(-c2cnc(OC[C@@](C)(N)CC(C)C)c(C)c2)ccn1 | label 0
Cc1cc(-c2cc(Cl)c(OC[C@@](C)(N)CC(C)C)cn2)ccn1 | label 0

IN: Is the recorded value of Activity equal to or greater than 70% for this compound? COC(=O)Nc1cc(-c2cc(C)c(OC[C@@](C)(N)CC(C)C)cn2)ccn1
OUT: label 0

IN: Repeat with COC(=O)Nc1cc(-c2ccc(OC[C@@](C)(N)CC(C)C)c(C)n2)ccn1
OUT: label 0

IN: Next entry: COC(=O)Nc1cc(-c2cnc(OC[C@@](C)(N)CC(C)C)c(Cl)c2)ccn1
OUT: label 1

IN: What do we get for COC(=O)Nc1cc(-c2cnc(OC[C@@](C)(N)CC(C)C)c(C#N)c2)ccn1 ?
OUT: label 1
